Provenance of the data: patent US7863315B2

Target: HDAC6 (α-tubulin acetylation) (Homo sapiens)
Construct: endogenous in cells; host or cells: HeLa
Sequence (Q9UBN7 whole entry): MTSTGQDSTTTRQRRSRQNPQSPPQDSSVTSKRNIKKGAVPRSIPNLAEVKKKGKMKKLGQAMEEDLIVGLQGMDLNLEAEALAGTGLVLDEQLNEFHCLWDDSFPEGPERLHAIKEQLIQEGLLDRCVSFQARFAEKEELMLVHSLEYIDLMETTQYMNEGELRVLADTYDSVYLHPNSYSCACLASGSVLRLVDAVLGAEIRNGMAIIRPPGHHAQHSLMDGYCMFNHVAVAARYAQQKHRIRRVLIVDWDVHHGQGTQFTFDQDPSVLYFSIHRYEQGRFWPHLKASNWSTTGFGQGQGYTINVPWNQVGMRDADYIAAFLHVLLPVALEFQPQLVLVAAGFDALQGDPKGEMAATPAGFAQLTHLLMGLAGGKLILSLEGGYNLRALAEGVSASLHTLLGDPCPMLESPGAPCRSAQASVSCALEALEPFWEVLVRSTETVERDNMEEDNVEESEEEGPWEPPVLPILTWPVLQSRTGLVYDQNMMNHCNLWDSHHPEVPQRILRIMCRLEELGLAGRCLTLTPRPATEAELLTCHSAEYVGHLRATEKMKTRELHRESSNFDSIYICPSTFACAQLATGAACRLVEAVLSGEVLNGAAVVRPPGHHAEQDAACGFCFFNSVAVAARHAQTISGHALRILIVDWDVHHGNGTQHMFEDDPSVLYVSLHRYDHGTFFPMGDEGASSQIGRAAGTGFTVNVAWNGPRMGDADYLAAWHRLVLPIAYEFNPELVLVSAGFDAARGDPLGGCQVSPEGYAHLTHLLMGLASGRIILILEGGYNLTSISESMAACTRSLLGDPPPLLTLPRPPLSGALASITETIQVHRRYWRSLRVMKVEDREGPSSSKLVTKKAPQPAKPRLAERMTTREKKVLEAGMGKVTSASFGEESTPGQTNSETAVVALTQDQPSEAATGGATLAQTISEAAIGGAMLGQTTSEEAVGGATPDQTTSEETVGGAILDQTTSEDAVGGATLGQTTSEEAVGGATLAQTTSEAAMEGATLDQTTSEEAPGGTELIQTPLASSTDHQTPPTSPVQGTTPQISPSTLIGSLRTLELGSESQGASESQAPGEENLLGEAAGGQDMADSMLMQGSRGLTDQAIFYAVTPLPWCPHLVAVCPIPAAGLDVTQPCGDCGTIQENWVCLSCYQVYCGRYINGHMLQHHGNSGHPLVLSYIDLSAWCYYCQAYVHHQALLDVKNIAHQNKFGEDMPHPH
Test: ELISA assay of acetylation of α-tubulin in HeLa cells
Assay type: cell-based
Conditions: M-HeLa, 24 hours
Measured property: fold induction at 10 µM
Output: the number by itself.

Ask: Value lookup for fold induction at 10 µM; key = O=C(CCCCCNC(=O)c1ccc(/C=C2\C(=O)Nc3ccc(F)cc32)cc1)NO [Example 41]
Result: 1.47

----------
Biological target: HDAC6 (α-tubulin acetylation) (Homo sapiens)
Construct: endogenous in cells; host or cells: HeLa
Assay: ELISA assay of acetylation of α-tubulin in HeLa cells
Type: cell-based
Details: M-HeLa, 24 hours
Measured property: fold induction at 10 µM
Output: the number by itself.

Compound: Nc1cc(F)ccc1NC(=O)CCCCCNC(=O)c1cccc(/C=C2\C(=O)Nc3ccc(F)cc32)c1 [Example 45]
Reported result: 1.64

Compound: Nc1ccccc1NC(=O)CCCCCCCNC(=O)c1ccc(/C=N/N=C2\C(=O)Nc3ccc(F)cc32)cc1 [Example 35]
Reported result: 1.39

Compound: Nc1ccccc1NC(=O)CCCCCNC(=O)c1cccc(/C=C2\C(=O)Nc3ccc(F)cc32)c1 [Example 44]
Reported result: 2.66

Now for another entry.
Ask: Value lookup for fold induction at 10 µM; key = Cc1[nH]c(/C=N/N=C2\C(=O)Nc3ccc(F)cc32)c(C)c1C(=O)NCCCCC(=O)Nc1ccc(F)cc1N [Example 8]
Result: 1.76
